- assay.system: T1, cTSLPR-Ig (cynomolgus monkey)
- T1 construct: also called cyTSLP R-hIg P749; Mam-Trans[FlagPreProTrypsin]DELTA2_NHP[Ig]
- assay: ELISA, plate coated with TSLPR 50 ng/well, HRP goat anti-mouse detection
# Lookup of reported EC50 keyed by entry
Numeric answer only, unit ng/mL assumed.

Use these answered entries as a reference point.
binder	reported.endpoint	measurement.units	value.measured
mouse antibody 49A5 (antibody, mouse IgG1, V domains shown, Mouse IgG1/kappa from hybridoma; also called m49A5; LB55.49A5.2F9) VH: QVQLKQSGPGLVQPSQSLSITCTVSGFSLTTYGVHWVRQSPGKGLEWLGVIWRGGNTAYNPAFMSRLSITKDNSKSQVFFKMNSLQADDTAIYHCAKKSYYGYHAMGYWGQGTSVTVSS VL: DIQMTQTTSSLSASLGDRVTINCRASQDISNYLNWYQQNPDGTVKLLIYYTSRLHSGVPSRFSGSGSGTDYSLTISNLEQEDIATYFCQQANTLPWTFGGGTKLEIKR	EC50	ng/mL	5.9
mouse antibody 54A11 (antibody, mouse IgG2a, V domains shown, Mouse IgG2a/kappa from hybridoma; also called m54A11; LB55.54A11.3D6) VH: EVQLQQSGPELVKPRASVKISCKASGYSFTGYYIHWVKQSHVKSLEWIGRINPYNGATIYNPNFKDKASLTVDKSSSTAFMEVHSLTSEDSAVYYCARSYGYVNYFDYWGQGTTLTVSS VL: EIVLTQSPATLSVTPGDSVSLSCRASQSISNNLHWYHQKSHESPRLLIKFGFQSISGIPSRFSGSGSGTDFTLSINSVETEDFGMYFCQQTNSWLTFGAGTKLELKR	EC50	ng/mL	7.5

QUERY: Item mouse anti-human TSLPR antibody 70E8 (antibody, mouse IgG1, V domains shown, Mouse IgG1/kappa from hybridoma; also called m70E8; LB55.70E8.1A8) VH: DVQLQESGPDLVKPSQSLSLTCTVTNYSITSGYSWPWIRQFPGNKLEWLGYIHSSGRTNYNPSLKSRISITRDTSKNQFFLQLNSVTPEDTATYYCARSQLGLVFFAYWGQGTLVTVSA VL: DIVMTQSQKFMSTSVGDRVSVTCKASQSVGANVAWYQQIPGHSPKVLIYSASYRFSGVPDRFTGSGSGTDFTLTISNVQSEDLAEYFCQQYNSYPYTFGGGTKLEIRR has what recorded EC50?
RESULT: 958

Data provenance: patent US20110020369A1
